Target: human recombinant HDAC6 (Homo sapiens, UniProt Q9UBN7)
Construct: purchased Calbiochem 382180
Test: HDAC6 enzyme activity inhibition assay (in vitro, fluorimetric)
Format: biochemical
Conditions: HDAC6 selectivity over HDAC1
PARAMETER: HDAC6 selectivity (fold)

input: Which value of HDAC6 selectivity (fold) has been reported for C[C@@H]1CN(Cc2ccc(C(=O)NO)c(F)c2)C[C@H](C)N1Cc1ccccc1 in the records?
output: >256 fold

input: Which value of HDAC6 selectivity (fold) has been reported for C[C@@H]1CN(C(=O)c2ccccn2)C[C@H](C)N1Cc1ccc(C(=O)NO)cc1 in the records?
output: >22 fold

input: Which value of HDAC6 selectivity (fold) has been reported for C[C@@H]1CN(Cc2ccc(C(=O)NO)cc2)C[C@H](C)N1Cc1cc(F)ccc1F in the records?
output: >28 fold

input: Which value of HDAC6 selectivity (fold) has been reported for CC(C)CCN1C[C@@H](C)N(Cc2ccc(C(=O)NO)cc2)[C@@H](C)C1 in the records?
output: <13 fold

input: Which value of HDAC6 selectivity (fold) has been reported for C[C@@H]1CN(Cc2ccc(C(=O)NO)cc2)C[C@H](C)N1Cc1ccccc1-c1ccco1 in the records?
output: >43 fold

input: Which value of HDAC6 selectivity (fold) has been reported for C[C@@H]1CN(S(=O)(=O)c2ccc(C(=O)NO)cc2)C[C@H](C)N1Cc1ccccc1 in the records?
output: >11 fold

input: Which value of HDAC6 selectivity (fold) has been reported for C[C@@H]1CN(Cc2ccc(C(=O)NO)cc2)C[C@H](C)N1CCCC(F)(F)F in the records?
output: >12 fold

input: Which value of HDAC6 selectivity (fold) has been reported for C[C@@H]1CN(Cc2ccc(C(=O)NO)c(O)c2)C[C@H](C)N1Cc1cccc(CN2CCOCC2)c1 in the records?
output: >23 fold

input: Which value of HDAC6 selectivity (fold) has been reported for CCCCN1[C@H](C)CN(Cc2ccc(C(=O)NO)cc2)C[C@@H]1C in the records?
output: >21 fold

====

Kindly supply the reported IC50 values for the records listed here.
Biological target: human recombinant HDAC1 (Homo sapiens)
Sequence (Q13547 whole entry): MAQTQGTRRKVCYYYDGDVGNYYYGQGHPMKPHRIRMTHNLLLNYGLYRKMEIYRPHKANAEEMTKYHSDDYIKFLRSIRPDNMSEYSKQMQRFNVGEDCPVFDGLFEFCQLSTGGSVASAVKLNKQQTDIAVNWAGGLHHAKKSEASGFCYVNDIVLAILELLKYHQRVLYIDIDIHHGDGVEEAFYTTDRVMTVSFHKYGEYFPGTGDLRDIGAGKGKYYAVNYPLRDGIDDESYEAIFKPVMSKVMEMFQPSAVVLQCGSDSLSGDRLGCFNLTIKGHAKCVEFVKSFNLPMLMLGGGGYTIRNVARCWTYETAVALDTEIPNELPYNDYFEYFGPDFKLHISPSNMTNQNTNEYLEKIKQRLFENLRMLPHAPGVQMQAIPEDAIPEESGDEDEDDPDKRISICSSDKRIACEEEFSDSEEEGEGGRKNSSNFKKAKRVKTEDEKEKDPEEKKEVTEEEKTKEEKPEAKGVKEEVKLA
Test: HDAC1 enzyme activity inhibition assay (in vitro, fluorimetric)
Conditions: human recombinant HDAC1, fluorimetric kit, 30° C. 60 minutes
Value expressed in µM; do not type the unit.

input: Which value of IC50 has been reported for C[C@@H]1CN(Cc2ccc(C(=O)NO)cc2)C[C@H](C)N1C(=O)Cc1cccc(-c2ccccc2)c1 [Compound 234] in the records?
output: 8.9

input: Which value of IC50 has been reported for C[C@@H]1CN(Cc2ccc(C(=O)NO)cc2)C[C@H](C)N1C(=O)c1ccc(CN2CCCC2)cc1 [Compound 461] in the records?
output: 4.2

input: Which value of IC50 has been reported for CCN(CC)Cc1cccc(CN2[C@H](C)CN(Cc3ccc(C(=O)NO)cc3)C[C@@H]2C)c1 [Compound 426] in the records?
output: 5

====

Kindly supply the reported IC50 values for the records listed here.
Molecular target: human recombinant HDAC6 (Homo sapiens)
Sequence (Q9UBN7 1-1215): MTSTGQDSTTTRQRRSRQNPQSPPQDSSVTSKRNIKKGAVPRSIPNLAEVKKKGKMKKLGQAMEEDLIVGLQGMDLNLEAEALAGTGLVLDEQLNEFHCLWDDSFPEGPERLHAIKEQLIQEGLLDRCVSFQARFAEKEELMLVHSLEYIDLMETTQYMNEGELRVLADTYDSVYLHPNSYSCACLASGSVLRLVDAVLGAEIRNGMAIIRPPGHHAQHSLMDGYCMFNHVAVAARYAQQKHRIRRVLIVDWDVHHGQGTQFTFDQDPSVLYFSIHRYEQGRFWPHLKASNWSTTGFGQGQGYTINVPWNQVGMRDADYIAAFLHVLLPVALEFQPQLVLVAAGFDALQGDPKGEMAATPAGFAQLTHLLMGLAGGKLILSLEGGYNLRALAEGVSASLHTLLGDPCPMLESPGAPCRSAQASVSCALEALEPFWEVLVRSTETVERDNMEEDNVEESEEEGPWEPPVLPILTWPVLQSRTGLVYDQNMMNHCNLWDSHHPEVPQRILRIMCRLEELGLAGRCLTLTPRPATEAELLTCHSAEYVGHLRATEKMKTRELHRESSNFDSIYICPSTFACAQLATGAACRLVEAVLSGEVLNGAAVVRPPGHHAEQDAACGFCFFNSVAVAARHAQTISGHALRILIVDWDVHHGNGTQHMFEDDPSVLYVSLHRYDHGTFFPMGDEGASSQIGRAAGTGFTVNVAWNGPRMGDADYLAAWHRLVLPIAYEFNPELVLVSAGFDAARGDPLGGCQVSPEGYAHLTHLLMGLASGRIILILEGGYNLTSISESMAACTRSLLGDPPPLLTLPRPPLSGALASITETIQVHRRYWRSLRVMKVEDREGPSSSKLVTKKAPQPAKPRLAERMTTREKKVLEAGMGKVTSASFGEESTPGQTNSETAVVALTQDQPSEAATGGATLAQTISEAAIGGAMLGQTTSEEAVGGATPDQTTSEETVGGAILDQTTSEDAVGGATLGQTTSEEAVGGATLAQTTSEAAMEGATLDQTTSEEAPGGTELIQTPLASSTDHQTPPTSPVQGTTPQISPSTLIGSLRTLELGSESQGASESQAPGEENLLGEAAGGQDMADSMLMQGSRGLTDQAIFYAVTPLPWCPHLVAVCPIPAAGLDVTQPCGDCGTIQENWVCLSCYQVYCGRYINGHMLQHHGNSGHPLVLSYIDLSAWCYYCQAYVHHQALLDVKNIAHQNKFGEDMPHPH
Assay: HDAC6 enzyme activity inhibition assay (in vitro, fluorimetric)
Conditions: human recombinant HDAC6, fluorimetric kit, same protocol as HDAC1
State the result as a value with its unit after it.

input: Which value of IC50 has been reported for CC(=O)N1CCN(Cc2cccc(C(=O)N3[C@H](C)CN(Cc4ccc(C(=O)NO)cc4)C[C@@H]3C)c2)CC1 in the records?
output: 0.09 µM

input: Which value of IC50 has been reported for C[C@@H]1CN(Cc2ccccc2-c2ccoc2)C[C@H](C)N1Cc1ccc(C(=O)NO)cc1 in the records?
output: 0.843 µM

input: Which value of IC50 has been reported for C[C@@H]1CN(Cc2ccc(C(=O)NO)cc2)C[C@H](C)N1Cc1ccccc1CN1CCOCC1 in the records?
output: 0.146 µM

input: Which value of IC50 has been reported for C[C@@H]1CN(Cc2ccc(C(=O)NO)cc2)C[C@H](C)N1Cc1cccc(C2=CCOCC2)c1 in the records?
output: 0.025 µM

input: Which value of IC50 has been reported for C[C@@H]1CN(Cc2ccc(C(=O)NO)cc2)C[C@H](C)N1Cc1cccc(CN2CCCCC2)c1 in the records?
output: 0.083 µM

input: Which value of IC50 has been reported for C[C@@H]1CN(C(=O)Cc2cccc(C3=CCC(C)(C)CC3)c2)C[C@H](C)N1Cc1ccc(C(=O)NO)cc1 in the records?
output: 1.54 µM

input: Which value of IC50 has been reported for CC(C)CCN1CCN(Cc2cccc(CN3[C@H](C)CN(Cc4ccc(C(=O)NO)cc4)C[C@@H]3C)c2)CC1 in the records?
output: 0.044 µM

input: Which value of IC50 has been reported for C[C@@H]1CN(Cc2ccc(C(=O)NO)cc2)C[C@H](C)N1Cc1cc(F)c(F)cc1F in the records?
output: 0.349 µM

input: Which value of IC50 has been reported for CC(c1ccccc1)N1C[C@@H](C)N(Cc2ccc(C(=O)NO)cc2)[C@@H](C)C1 (stereo partly drawn) in the records?
output: 1.23 µM

Every entry's value here was drawn from patent US10287255B2.
